ASSAY INFO: Human HepG2 cell viability assay in 384 well format
Assay type: toxicity, cell-based
Parameters: dose 125 nL, time 70.5 hour; concentration not given beside the values
CONDITION: HepG2 cells, read-out: Inhibition
REPORTED METRIC: cytotoxicity at 70.5 h (%)
Answers are plain numbers, in %.

- MOLECULE: "COC(=O)C1CCN(C(=O)Cn2ccc(-c3ccsc3)n2)CC1"
  cytotoxicity at 70.5 h [%]: -3.32
- MOLECULE: "Cc1nncn1CCNC(=O)C1SCCc2sccc21 (stereo not drawn)"
  cytotoxicity at 70.5 h [%]: -3.34
- MOLECULE: "CC(C(=O)NCCCN1CCCCCC1=O)n1cncn1 (stereo not drawn)"
  cytotoxicity at 70.5 h [%]: -0.359
- MOLECULE: "O=C(O)c1cc(-c2ccn(CC3CC3)n2)n2ccccc12"
  cytotoxicity at 70.5 h [%]: -1.77

Batch request: cytotoxicity at 70.5 h per item, same order as input.
1. O=C(c1ccc(NCc2ccco2)nc1)N1CCc2ccccc21
2. O=C(NCCNC(=O)C1CC1)c1cnc(-c2ccccc2)nc1
3. Cc1cccc(C)c1OC1CN(Cc2cnc(N3CCOCC3)nc2)C1
4. CCn1cnnc1CCNC(=O)CCNC(=O)c1ccccc1F

Response:
-3.94
16.6
-7
-6.14

Batch request: cytotoxicity at 70.5 h per item, same order as input.
1. CC(C)Cc1cc(NC(=O)c2ccccn2)n(C)n1
2. Cc1ccc(-c2nc(CNc3ccc(C(N)=O)c(C)c3)cs2)o1
3. CC(=O)N1CCCC2(C1)CN(c1ncc(C)cn1)CCO2 (stereo not drawn)
4. O=C(Cc1ccncc1)N1CCC2(CC1)CC(c1ccccc1)CO2 (stereo not drawn)

Response:
-10.2
-8.76
-17.1
19.4
